test system: COLO 205; assay: NCI tumour cell line growth inhibition, 48 h
Calls of active or inactive are those of the source. Rule as the data show it: active = GI50 up to about 1.1 µM and inactive = higher.
measuredEndpoint: GI50

1. O=C1C(=O)N(c2ccc(Cl)c(Cl)c2)C(=O)C(=O)C1c1nc2ccccc2o1; 47.2 µM (inactive)
2. CC1(C)CC[C@]2(C(=O)O)CC[C@]3(C)C(=CCC4=C5C[C@H](O)[C@H](O)[C@@](C)(CO)[C@@]5(C)CC[C@]43C)[C@@H]2C1; 15.2 µM (inactive)
3. CN(/N=C(\C(=O)O)c1ccccc1)C1=NCCCCN1; > 100 µM (inactive)
4. CC(=O)Nc1nnc(S(C)(=O)=O)s1; > 100 µM (inactive)
5. CC(C)(C)c1cc(C(CO)OCCOCCO)cc(C(C)(C)C)c1O (configuration not stated); > 100 µM (inactive)
6. NC(=O)c1c(NC=O)ncn1C1OCC(O)C(O)C1O (configuration not stated); > 100 µM (inactive)
7. Cc1cc(C)nc(NS(=O)(=O)c2ccc(NC(=O)c3cccc4c(NNc5ccc(S(=O)(=O)N=C(N)N)cc5)c5ccccc5nc34)cc2)n1; > 50 µM (inactive)
8. c1ccc(SCCCC(Sc2ccccc2)Sc2ccccc2)cc1; > 100 µM (inactive)
9. CC(=O)NC(Cc1ccccc1)NC(=O)O (configuration not stated); > 100 µM (inactive)
10. Oc1ccc2ccccc2c1-c1nnc(CCCCCCCCc2nnc(-c3c(O)ccc4ccccc34)o2)o1; 15.3 µM (inactive)
11. CCC1(c2c(F)c(F)c(N)c(F)c2F)CCC(=O)NC1=O (configuration not stated); > 100 µM (inactive)
12. c1ccc(C2=NOC(c3ccccc3)N2C23CC4CC(CC(C4)C2)C3)cc1 (configuration not stated); > 10 µM (inactive)
13. CC(C)(C)/N=C1/CC(C)(C)c2ccccc2/C(=N\c2ccccc2)S1; 23.3 µM (inactive)
14. CC(=O)NC1c2ccccc2C(C)(C)C12CCC1(CC2)OCCO1 (configuration not stated); > 100 µM (inactive)
15. C=C(C)C1Cc2c(cc(OC)c3c(=O)c4ccccc4n(C)c23)O1 (configuration not stated); > 100 µM (inactive)
16. OCC1NCC(O)C(O)C1O (configuration not stated); > 100 µM (inactive)
17. CCOP1(=O)CC(C)=C(Cl)C(OC)C1 (configuration not stated); > 100 µM (inactive)
